- targetSystem: UniProt Q12884
- conditions: 2 µM; inhibitor
Counter-ions that a name gives are not always drawn.
Would you mind labelling by Relative inhibition (%), activity assay? At or over 20% is Condition met, under is Condition not met.

Look over these answered cases.
CNC(=O)c1ccc(-c2cnc3ncc(Cc4ccc5ncccc5c4)n3n2)cc1F [Capmatinib]
Condition met
CCN(CC)CCOc1ccc2c(c1)C(=O)c1cc(OCCN(CC)CC)ccc1-2 [Tilorone (dihydrochloride)]
Condition met
O=C1OC2(c3cc(I)c(O)c(I)c3Oc3c2cc(I)c(O)c3I)c2c(Cl)c(Cl)c(Cl)c(Cl)c21 [rose bengal]
Condition not met

Exam item: Test whether the molecule COc1cccc2c1C(=O)c1c(O)c3c(c(O)c1C2=O)C[C@@](O)(C(C)=O)C[C@@H]3O[C@H]1C[C@H](N)[C@H](O)[C@H](C)O1 [Daunorubicin (hydrochloride)] records Relative inhibition (%), activity assay of 20% or higher.
Marked response: Condition met

Exam item: Answer whether Relative inhibition (%), activity assay of Cc1cnc(C(=O)N[C@H]2CCCCC/C=C\[C@@H]3C[C@@]3(C(=O)NS(=O)(=O)C3CC3)NC(=O)[C@@H]3C[C@@H](Oc4nc5ccccc5c5ccccc45)CN3C2=O)cn1 [Paritaprevir] is greater than or equal to 20%.
Marked response: Condition met

Exam item: Could you tell me if the measured Relative inhibition (%), activity assay of C=CC1=C(C)c2cc3[nH]c(cc4nc(cc5[nH]c(cc1n2)c(C)c5CCC(=O)O)C(CCC(=O)O)=C4C)c(C)c3C=C [protoporphyrin IX] reaches 20% or more?
Marked response: Condition met

Exam item: # check: Relative inhibition (%), activity assay of CC(C)(C)C(=O)OCOC(=O)[C@@H]1N2C(=O)[C@@H](N=CN3CCCCCC3)[C@H]2SC1(C)C [pivmecillinam] is greater than or equal to 20%
Marked response: Condition met

Exam item: Has Cc1ccc(C(=O)Nc2ccc(S(=O)(=O)O)c3cc(S(=O)(=O)O)cc(S(=O)(=O)O)c23)cc1NC(=O)c1cccc(NC(=O)Nc2cccc(C(=O)Nc3cc(C(=O)Nc4ccc(S(=O)(=O)O)c5cc(S(=O)(=O)O)cc(S(=O)(=O)O)c45)ccc3C)c2)c1 [Suramin (sodium salt)] a recorded Relative inhibition (%), activity assay greater than or equal to 20%?
Marked response: Condition not met

Exam item: Please indicate if the recorded Relative inhibition (%), activity assay for CC(=O)OCC1=C(C(=O)O)N2C(=O)[C@@H](NC(=O)CSc3ccncc3)[C@H]2SC1 [Cephapirin (sodium)] meets or exceeds 20%.
Marked response: Condition not met

###

# maps each entry to its Relative inhibition (%), activity assay
- targetSystem: fibroblast activation protein (FAP; rhFAP, SLIN-tagged hFAP) (Homo sapiens)
- Sequence (Q12884 35-760): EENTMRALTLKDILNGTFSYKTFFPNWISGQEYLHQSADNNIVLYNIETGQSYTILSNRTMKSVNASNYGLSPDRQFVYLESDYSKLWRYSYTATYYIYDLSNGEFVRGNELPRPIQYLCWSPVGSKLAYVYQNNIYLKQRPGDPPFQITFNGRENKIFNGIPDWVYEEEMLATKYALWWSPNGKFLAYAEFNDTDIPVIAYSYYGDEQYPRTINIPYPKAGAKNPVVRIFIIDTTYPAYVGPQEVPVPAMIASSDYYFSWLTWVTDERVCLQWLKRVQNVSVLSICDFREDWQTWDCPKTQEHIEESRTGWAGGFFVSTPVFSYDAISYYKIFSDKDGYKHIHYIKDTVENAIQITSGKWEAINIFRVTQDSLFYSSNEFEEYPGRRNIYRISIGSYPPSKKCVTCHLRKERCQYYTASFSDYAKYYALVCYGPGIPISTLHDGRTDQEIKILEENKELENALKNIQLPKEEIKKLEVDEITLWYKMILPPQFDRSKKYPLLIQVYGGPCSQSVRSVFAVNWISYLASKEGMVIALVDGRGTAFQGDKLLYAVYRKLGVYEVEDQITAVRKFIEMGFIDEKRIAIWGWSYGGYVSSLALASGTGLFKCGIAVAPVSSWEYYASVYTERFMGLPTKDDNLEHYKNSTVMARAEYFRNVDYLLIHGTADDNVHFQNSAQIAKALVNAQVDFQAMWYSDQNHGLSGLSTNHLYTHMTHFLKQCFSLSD
- conditions: 2 µM; inhibitor
Where a name gives a salt, the structure may show the parent alone.
Field: numeric (%). Do not append units.

As a guide, the following entries are already answered.
COc1ccc2nc3cc(Cl)ccc3c(Nc3cc(CN4CCCC4)c(O)c(CN4CCCC4)c3)c2n1 [Pyronaridine (tetraphosphate)]
19
CCN1CCN(Cc2ccc(Nc3ncc(F)c(-c4cc(F)c5nc(C)n(C(C)C)c5c4)n3)nc2)CC1 [Abemaciclib (methanesulfonate)]
5
Cc1cc(-c2ccc(/N=N/c3ccc4c(S(=O)(=O)O)cc(S(=O)(=O)O)c(N)c4c3O)c(C)c2)ccc1/N=N/c1ccc2c(S(=O)(=O)O)cc(S(=O)(=O)O)c(N)c2c1O [Evans Blue]
21

Relative inhibition (%), activity assay measured on CCN1CCN(C(=O)N[C@@H](C(=O)N[C@@H]2C(=O)N3C(C(=O)O)=C(CSc4nnnn4C)CS[C@H]23)c2ccc(O)cc2)C(=O)C1=O [Cefoperazone (sodium salt)] = 25

# Relative inhibition (%), activity assay of C[n+]1cc2c3c(ccc2c2ccc4cc5c(cc4c21)OCO5)OCO3 [Sanguinarine (chloride)] = 13

The recorded Relative inhibition (%), activity assay for CC(=O)[C@]1(O)Cc2c(O)c3c(c(O)c2[C@@H](O[C@H]2C[C@H](N)[C@H](O)[C@H](C)O2)C1)C(=O)c1ccccc1C3=O [Idarubicin (hydrochloride)] is 19

Sample CN1CCN(c2ccc(Nc3ncc4cc5n(c4n3)C3(CCCCC3)CNC5=O)nc2)CC1 [Trilaciclib (hydrochloride)] ; Relative inhibition (%), activity assay observed: 19

Item: CC1(C)C(/C=C/C=C/C=C/C=C2\N(CCCCS(=O)(=O)O)c3ccc4ccccc4c3C2(C)C)=[N+](CCCCS(=O)(=O)[O-])c2ccc3ccccc3c21 [Indocyanine green] | Relative inhibition (%), activity assay: 20
